Please go through the items and note down their binding signal.
Target: BATF2 (bZIP);JUNB (human;human, UniProt Q8N1L9;P17275 1-142;148-347, |)
Sequence 1: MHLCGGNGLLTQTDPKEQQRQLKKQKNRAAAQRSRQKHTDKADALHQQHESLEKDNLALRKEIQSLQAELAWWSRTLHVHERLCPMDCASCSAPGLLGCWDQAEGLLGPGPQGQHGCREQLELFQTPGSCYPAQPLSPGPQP
Sequence 2: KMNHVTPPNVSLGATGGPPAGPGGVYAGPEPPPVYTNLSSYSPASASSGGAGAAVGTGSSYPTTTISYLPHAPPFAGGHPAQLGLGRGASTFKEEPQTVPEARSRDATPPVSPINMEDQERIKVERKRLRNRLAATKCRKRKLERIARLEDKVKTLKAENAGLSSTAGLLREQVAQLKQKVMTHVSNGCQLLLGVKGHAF
Test: Spec-seq (EMSA and sequencing of bound and unbound bands); 100 nM BATFx-JUNB, 1 uM dsDNA library, 50 mM K acetate, 20 mM Tris-acetate, 10 mM Mg acetate, 100 ug/ml BSA, pH 7.9, 10% glycerol, 30 min on ice; native 9% PAGE at 4 C; low values mean tight binding
Conditions: protein: recombinant;recombinant; tags: N-terminal mCherry-TEV, cleaved off;C-terminal 6His; copies: 1;1; dsDNA, one strand shown

Exercise: Could you share which binding signal value was measured for GATAGTCTCATTTTCACCCCGTGAAAGGAGTCATTTGTTCCATTACAGTATCTGT ?
Solution: 0.569 kT

Exercise: Moving on to GATAGTCTCATTTTCACCCCGTGAAATGACTCAATTGTTCCATTACAGTATCTGT
Solution: -0.145 kT

Exercise: Can you check GATAGTCTCATTTTCACCCCGTGAAATGAGTCGATTGTTCCATTACAGTATCTGT next?
Solution: 1.01 kT

Exercise: Note, next up: GATAGTCTCATTTTCACCCCGTGAAATGTCTCATTTGTTCCATTACAGTATCTGT
Solution: 0.93 kT

----------
Biological target: BATF;JUNB (human;human, UniProt Q16520;P17275 1-125;148-347, |)
Sequence 1: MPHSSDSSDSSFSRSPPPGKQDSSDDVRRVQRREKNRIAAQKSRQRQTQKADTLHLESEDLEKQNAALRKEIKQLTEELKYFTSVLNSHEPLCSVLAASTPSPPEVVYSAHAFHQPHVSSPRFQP
Sequence 2: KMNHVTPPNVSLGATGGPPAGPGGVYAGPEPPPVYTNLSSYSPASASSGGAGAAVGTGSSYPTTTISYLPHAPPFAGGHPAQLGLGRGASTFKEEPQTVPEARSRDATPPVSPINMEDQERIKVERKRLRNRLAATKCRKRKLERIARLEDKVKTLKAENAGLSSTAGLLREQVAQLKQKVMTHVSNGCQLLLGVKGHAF
Test: Spec-seq (EMSA and sequencing of bound and unbound bands); 100 nM BATFx-JUNB, 1 uM dsDNA library, 50 mM K acetate, 20 mM Tris-acetate, 10 mM Mg acetate, 100 ug/ml BSA, pH 7.9, 10% glycerol, 30 min on ice; native 9% PAGE at 4 C; low values mean tight binding
Conditions: protein: recombinant;recombinant; tags: N-terminal mCherry-TEV, cleaved off;C-terminal 6His; copies: 1;1; dsDNA, one strand shown
EXPERIMENTAL ENDPOINT: binding signal (kT)
All answers are understood in kT, so give the number only.

Exercise: Given GATAGTCTCATTTTCACCCCGTGAAATGACTGATTTGTTCCATTACAGTATCTGT , state its recorded binding signal.
Solution: -0.224

Exercise: Record: GATAGTCTCATTTTCACCCCGTGAAATGAGTAAATTGTTCCATTACAGTATCTGT
Solution: -0.0981

Exercise: Same for GATAGTCTCATTTTCACCCCGTGAAATAACGTCATTGTTCCATTACAGTATCTGT
Solution: -0.467

Exercise: Another sequence: GATAGTCTCATTTTCACCCCGTGAAATTGAGTCATTGTTCCATTACAGTATCTGT
Solution: -0.981

Exercise: Now try GATAGTCTCATTTTCACCCCGTGAAAGTGAGTCATTGTTCCATTACAGTATCTGT .
Solution: -1.22

Exercise: Could you do the same for GATAGTCTCATTTTCACCCCGTGAAATGACGACATTGTTCCATTACAGTATCTGT , please?
Solution: -0.298

Exercise: Now the sequence GATAGTCTCATTTTCACCCCGTGAAATGAGTCCGTTGTTCCATTACAGTATCTGT
Solution: 0.231

Exercise: Repeat for the following sequence: GATAGTCTCATTTTCACCCCGTGAAATGACGTCCTTGTTCCATTACAGTATCTGT
Solution: 0.097

Exercise: Would you mind doing GATAGTCTCATTTTCACCCCGTGAAATGAGTCAGTTGTTCCATTACAGTATCTGT as well?
Solution: -0.773
